# ASSAY_METHOD_TEXT: NCI Yeast Anticancer Drug Screen. Data for the rad50 strain (AID 155);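 note: 0% = growth of vehicle-only cultures of the same strain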
# CONDITION_PARAMETERS: S. cerevisiae rad50 strain growth inhibition; at 50.0 µM
This is part of a sample that, as a whole, favours compounds with a hit. Of some 79,000 tested, about 15% had one in any assay. Calls of active or inactive are those of the source. Cut-off read from the data, not from the text of the source: active = growth inhibition above about 70%; inactive = the rest.
// one of t (active), f (inactive), no free text

Known results for molecules:
>>> qualitative_label("c1ccc2c(c1)C[N+]1(CCCCCCC1)C2")
"t"
>>> qualitative_label("CN(C)CCCC(=O)OCC[N+](C)(C)C")
"f"
>>> qualitative_label("COC(=O)c1cc[nH]c(=O)c1")
"f"

Exercise: I would be grateful if you could indicate the recorded call for CCc1cccc(C)c1N1C(=O)C(=O)C(c2nc3ccccc3o2)/C(=N\NS(=O)(=O)c2ccc(C)cc2)C1=O (stereo not given) .
Solution: f

Exercise: I would be grateful if you could indicate the recorded call for `CC1=C/C(=C\c2ccc([N+](=O)[O-])o2)C(=O)O1` .
Solution: t

Exercise: I would be grateful if you could indicate the recorded call for `N#C/C(=C\NC(=S)C(N)=S)c1nc2ccccc2s1` .
Solution: t

Exercise: I would be grateful if you could indicate the recorded call for `CC(=O)Nc1c(Cl)ccc2c1Cc1cc([N+](=O)[O-])ccc1-2` .
Solution: t

Exercise: I would be grateful if you could indicate the recorded call for `CCOC(=O)N/N=C/c1ccc(N(C)CCC#N)cc1` .
Solution: f

----------
# ASSAY_METHOD_TEXT: NCI Yeast Anticancer Drug Screen. Data for the bub3 strain (AID 167)
# CONDITION_PARAMETERS: S. cerevisiae bub3 mutant strain, at 50.0 µM (retest, dose inferred, filed as 5.0)
About 79,000 compounds went through this panel and 15% of them were active in at least one assay; those are over-represented in the sample as a whole. Active and inactive are the calls of the source. Rule as the data show it: active = growth inhibition above about 70%; inactive = the rest.
// one of 1 (yes) for active, 0 (no) for inactive, no free text

Known results for compounds:
>>> qualitative_label("CCCCCCCCCCCCNC(=O)C[n+]1cccc(C(=O)N(C)C)c1")
"0 (no)"
>>> qualitative_label("CC(=N/NC(=S)NCC(C)C)/C(C)=N\\Nc1ccc(Cl)cc1")
"1 (yes)"
>>> qualitative_label("CCCCCCC1CCC(CCCCCCCC(=O)N2CCN(C)CC2)C(C/C=C/CCCCCCCC(=O)N2CCN(C)CC2)C1CCCCC (stereo unspecified)")
"1 (yes)"

Exercise: I would be grateful if you could indicate the recorded call for `COc1c(O)cc(C=O)cc1[N+](=O)[O-]` .
Solution: 0 (no)

Exercise: I would be grateful if you could indicate the recorded call for `CC(=O)Sc1ccccc1C(=O)NCc1ccc(Cl)cc1` .
Solution: 1 (yes)

Exercise: I would be grateful if you could indicate the recorded call for `Cc1ccc(S(=O)(=O)NNc2nc(N(C)C)nc(N(C)C)n2)cc1` .
Solution: 0 (no)

Exercise: I would be grateful if you could indicate the recorded call for `O=S(=O)(Sc1ccccc1)C(c1ccccc1)c1ccccc1` .
Solution: 1 (yes)

Exercise: I would be grateful if you could indicate the recorded call for `CC(=O)OCCSCCOC(C)=O` .
Solution: 1 (yes)

Exercise: I would be grateful if you could indicate the recorded call for `COc1ccccc1/C=C1\NC(=S)N(/C=C2\C(=O)Oc3ccccc3C2=O)C1=O` .
Solution: 0 (no)

Exercise: I would be grateful if you could indicate the recorded call for O=C1C2=C(CCCC2)C(=O)C(Cl)C1Cl (stereo unspecified) .
Solution: 1 (yes)

Exercise: I would be grateful if you could indicate the recorded call for `CCNc1nc(C(F)(F)F)nc2nc[nH]c12` .
Solution: 0 (no)
